The values you see were collected from ChEMBL document CHEMBL5500402.

# collection of pEC50 values tested on N-arachidonyl glycine receptor (Mus musculus, UniProt Q8K1Z6)
# Sequence (Q8K1Z6 whole entry): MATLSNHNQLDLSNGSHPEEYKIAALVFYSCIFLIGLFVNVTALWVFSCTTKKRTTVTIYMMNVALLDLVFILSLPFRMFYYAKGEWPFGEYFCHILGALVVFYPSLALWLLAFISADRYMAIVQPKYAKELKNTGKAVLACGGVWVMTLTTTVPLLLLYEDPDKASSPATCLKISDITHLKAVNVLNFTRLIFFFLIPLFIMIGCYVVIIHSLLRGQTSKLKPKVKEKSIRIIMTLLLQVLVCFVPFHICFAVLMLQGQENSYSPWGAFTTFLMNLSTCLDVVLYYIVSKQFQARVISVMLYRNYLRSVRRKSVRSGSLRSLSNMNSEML
pEC50: −log10 of the molar value.
MEASUREMENT LABEL: pEC50

1) Cn1c(=O)c2c(nc(NCCc3c[nH]c4ccccc34)n2Cc2ccccc2Cl)n(C)c1=O 6.80
2) Cn1c(=O)c2c(nc(NCCc3c[nH]c4ccccc34)n2Cc2ccc(Cl)c(F)c2)n(C)c1=O 6.92
3) CC(=O)Nc1ccc(Cn2c(NCCc3c[nH]c4ccccc34)nc3c2c(=O)n(C)c(=O)n3C)cc1 6.55
4) CCCNS(=O)(=O)c1ccc(Cn2c(NCCc3c[nH]c4ccccc34)nc3c2c(=O)n(C)c(=O)n3C)cc1 5.89
5) Cn1c(=O)c2c(nc(NCCc3c[nH]c4ccccc34)n2Cc2ccc(S(N)(=O)=O)cc2)n(C)c1=O 4.96
